Tested on: Human immunodeficiency virus 1
TEST_DESCRIPTION: Antiviral activity against HIV1 BH10 in human MT4 cells assessed as inhibition of virus-induced cytopathogenicity after 4 days by MTS method
Assay type: functional, organism-based, Human immunodeficiency virus type 1 BH10
TEST_PARAMETERS: Human immunodeficiency virus 1, MT4, 96 h
pEC50: −log10 of the molar value.
ASSAY_METRIC: pEC50

| COMPOUND | pEC50 |
| --- | --- |
| OC[C@@H]1C=C[C@H](c2scc3c(O)ncnc23)O1 | < 4.00 |
| Nc1ncnc2c([C@H]3C=C[C@@H](CO)O3)scc12 | < 5.14 |
| CSc1ncnc2c([C@H]3C=C[C@@H](CO)O3)scc12 | < 4.15 |
| Cc1cn([C@H]2C[C@H](N=[N+]=[N-])[C@@H](CO)O2)c(=O)[nH]c1=O [ZIDOVUDINE] | 8.05 |
| OC[C@@H]1CC[C@H](c2scc3c(O)ncnc23)O1 | < 4.00 |
| O=c1[nH]cnc2c([C@@H]3O[C@H](CO)[C@@H](O)[C@H]3O)scc12 | < 4.00 |
| Nc1ncnc2c([C@H]3CC[C@@H](CO)O3)scc12 | < 4.12 |

Next compound, please.
## Input Find the measured pEC50: item OC[C@H]1O[C@@H](c2scc3c(=S)[nH]cnc23)[C@H](O)[C@@H]1O , target or system Human immunodeficiency virus 1.
## Output < 5.54

The measured values listed here are drawn from ChEMBL document CHEMBL1153937.
